Target: T1, human CD71 extracellular domain (human, UniProt P02786 89-760)
T1 construct: also called hCD71; human CD71-ECD
T1 sequence (P02786 89-760): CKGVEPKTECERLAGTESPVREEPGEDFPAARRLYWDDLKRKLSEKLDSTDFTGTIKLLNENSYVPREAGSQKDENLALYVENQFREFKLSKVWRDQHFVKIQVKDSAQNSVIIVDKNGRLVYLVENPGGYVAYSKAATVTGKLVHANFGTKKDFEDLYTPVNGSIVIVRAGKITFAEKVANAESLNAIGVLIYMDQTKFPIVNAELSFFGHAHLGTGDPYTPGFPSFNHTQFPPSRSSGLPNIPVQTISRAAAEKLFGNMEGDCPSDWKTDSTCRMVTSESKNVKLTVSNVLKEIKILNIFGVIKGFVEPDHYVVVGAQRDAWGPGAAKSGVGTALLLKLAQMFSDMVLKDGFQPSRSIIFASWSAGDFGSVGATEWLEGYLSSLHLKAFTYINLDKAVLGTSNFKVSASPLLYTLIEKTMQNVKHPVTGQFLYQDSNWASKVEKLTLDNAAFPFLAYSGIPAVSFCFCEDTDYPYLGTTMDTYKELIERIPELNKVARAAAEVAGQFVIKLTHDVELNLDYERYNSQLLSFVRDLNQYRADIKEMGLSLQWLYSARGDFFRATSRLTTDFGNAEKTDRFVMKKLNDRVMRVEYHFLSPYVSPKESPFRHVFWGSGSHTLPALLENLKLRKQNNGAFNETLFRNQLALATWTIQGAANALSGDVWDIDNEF
Test: primary ELISA; further: test concentration or dose not given here
Experimental readout: RLU

INSERT INTO results (binder, experimental_readout, test_result) VALUES
  ('CD71-binding FN3 domain of SEQ ID NO: 186 (designed binder) MSLPAPKNLVVSRVTEDSARLSWTAPDAAFDSFEIGYFENPYLGEAIVLTVPGSERSYDLTGLKPGTEYWVQIGGVKGGNWSAPLSAIFTT', 'RLU', '3.63e+06 RLU');

CD71-binding FN3 domain of SEQ ID NO: 124 (designed binder) MSLPAPKNLVVSRVIEDSARLSWTAPDAAFDSFEIGYFENLYLGEAIVLTVPGSERSYDLTGLKPGTEYWVQIGGVKGGNWSAPLSAIFTT yielded RLU of 5.01e+06 RLU

CD71-binding FN3 domain of SEQ ID NO: 138 (designed binder) MSLPAPKNLVVSRVTEDSARLSWTAPDAAFDSFFIGYLEPQPPGEVIHLFVPGSERSYDLTGLKPGTEYNVTIQGVKGGFPSMPLSAIFTT yielded RLU of 5.91e+06 RLU

CD71-binding FN3 domain of SEQ ID NO: 150 (designed binder) MSLPAPKNLVVSRVTEDSARLSWTAPDAAFDSFDIGYFENSYAGEAIVLTVPGSERSYDLTGLKPGTEYYVSIAGVKGGRFSPPLSAIFTT yielded RLU of 3.49e+06 RLU
